Molecular target: Serine/threonine-protein kinase PLK1 (Homo sapiens) (UniProt P53350)
Sequence (P53350 whole entry, looked up): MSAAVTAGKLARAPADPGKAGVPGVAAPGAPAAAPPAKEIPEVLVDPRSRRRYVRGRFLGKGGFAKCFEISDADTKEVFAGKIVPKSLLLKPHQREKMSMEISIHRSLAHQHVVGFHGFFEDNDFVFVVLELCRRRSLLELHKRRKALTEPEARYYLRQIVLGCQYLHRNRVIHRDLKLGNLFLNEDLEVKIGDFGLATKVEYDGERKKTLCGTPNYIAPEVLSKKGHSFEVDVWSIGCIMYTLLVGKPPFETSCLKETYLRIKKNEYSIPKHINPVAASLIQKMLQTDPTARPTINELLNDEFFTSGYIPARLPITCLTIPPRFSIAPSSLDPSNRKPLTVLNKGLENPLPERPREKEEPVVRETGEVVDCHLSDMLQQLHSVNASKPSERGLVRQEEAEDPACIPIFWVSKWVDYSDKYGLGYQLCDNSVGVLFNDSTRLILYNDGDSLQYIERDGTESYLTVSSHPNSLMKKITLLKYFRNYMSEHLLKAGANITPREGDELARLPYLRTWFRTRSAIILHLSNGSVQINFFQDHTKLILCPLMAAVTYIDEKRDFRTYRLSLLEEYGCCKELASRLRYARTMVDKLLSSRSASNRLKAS
Experiment: human PLK1 kinase inhibitors, primary screen, biochemical, TR-FRET (AID 619);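 note: 0% = DMSO max control and 100% = H-89 dihydrochloride min control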
Settings: recombinant PLK1 kinase, TR-FRET peptide phosphorylation; at 10 µM
Out of some 97,000 compounds screened, about 520 (0.54%) were called active.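 Rule for the calls: active = inhibition of 50% or more in the single-concentration screen; inactive = inhibition below 50%.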 This is one part of a sample in which actives are shown more often than they occur.
Log the outcome using a class from t = active, f = inactive

compound | group-label
c1ccc(CCC2=NCCn3cccc32)cc1 | f
O=C(NCc1ccccn1)c1cc(-c2ccccc2Cl)on1 | f
CNC(=O)CSc1nnc(CCc2ccccc2)n1-c1ccccc1 | f

# input Which outcome was assigned to `O=C(/C=C/Nc1ccccc1OC(F)(F)F)C(F)(F)F` in this test?
# output f

# input Check the results log: what was the call for CC1CSc2nnc(CCc3ccccc3)n21 (stereo unspecified) ?
# output t

# input Please state the recorded outcome for this compound: COc1ccc(C(C(=O)NCc2ccccc2)N(Cc2cccs2)C(=O)c2cnccn2)cc1 (stereo unspecified)
# output f

* * *

Target: Serine/threonine-protein kinase PLK1 (Homo sapiens) (UniProt P53350)
Assay: human PLK1 kinase inhibitors, primary screen, biochemical, TR-FRET (AID 619);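 note: 0% = DMSO max control and 100% = H-89 dihydrochloride min control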
Details: recombinant PLK1 kinase, TR-FRET peptide phosphorylation; at 10 µM
Among all 97,000 compounds or so, about 520 (0.54%) were called active.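 Rule for the calls: active = inhibition of 50% or more in the single-concentration screen; inactive = inhibition below 50%.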 This excerpt belongs to a sample that is enriched for actives.
# output must be one of active, inactive

compound | group-label
O=C(CO/N=C/c1ccccc1O)NNC(=O)c1ccccc1Cl | inactive
COc1ccc(-c2nc(CS(=O)CC(=O)NCc3cccnc3)c(C)o2)cc1OC (configuration not stated) | active
O=C(NCCCCCCCCCNC(=O)C(F)(F)F)C(F)(F)F | inactive
CS(=O)(=O)n1nc(-c2ccccc2)nc1NCc1ccco1 | inactive
COc1ccc(CCN2C(=O)C3CC=C(C)CC3C2=O)cc1OC (configuration not stated) | inactive

# input Which result was noted for this compound in the test: N#CC1=C(N)N(c2ccccc2)C2=C(C(=O)CCC2)C1c1ccccc1 (configuration not stated)
# output inactive

# input I'd appreciate the recorded outcome for CC(c1ccccc1)n1c(NCCCn2ccnc2)nc2c1c(=O)[nH]c(=O)n2C (configuration not stated) from this test.
# output inactive

# input Field: outcome | Entry: COc1ccc(C(C#N)N2N=C(C)CC2(C)C)cc1 (configuration not stated)
# output inactive

# input What is the recorded call for this compound in the test? Cc1cc(C)c2c3c(sc2n1)C(c1ccccc1)C(C#N)=C(N)O3 (configuration not stated)
# output inactive

# input # fetch the recorded call for CCCC(C(=O)n1nc(C)cc1C)C(NS(=O)(=O)c1ccc(C)cc1)c1ccccc1 (configuration not stated) here
# output inactive

# input How did this test come out for `C=CCn1c(Cn2nnc3ccccc32)nnc1SCC(=O)N/N=C/c1cc(Br)cc(OC)c1O` ?
# output inactive

# input Would you mind telling me which call this test gave `Cn1c(=O)[nH]c(=O)c2c1nc(NCCCn1ccnc1)n2Cc1cccc(Br)c1` ?
# output active

# input Assay outcome for `COc1ccc(C(=O)c2c(C)oc3cc([N+](=O)[O-])c(O)c([N+](=O)[O-])c23)cc1` : what was it?
# output inactive

# input Give the logged outcome of this assay for the following compound: CCC(C)NC(=O)CCCc1ccccc1 (configuration not stated)
# output inactive

# input Hello, I am checking results. What call was entered for `CN1CCN(c2ccc([N+](=O)[O-])c(Sc3nc4ccccc4[nH]3)c2)CC1` ?
# output inactive

* * *

Target: Serine/threonine-protein kinase PLK1 (Homo sapiens)
Assay: human PLK1 kinase inhibitors, primary screen, biochemical, TR-FRET (AID 619);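 note: 0% = DMSO max control and 100% = H-89 dihydrochloride min control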
Details: recombinant PLK1 kinase, TR-FRET peptide phosphorylation; at 10 µM; stronger effect = higher value
Out of some 97,000 compounds screened, about 520 (0.54%) were called active. Only a selection was taken, and actives are over-represented in it overall.
measured-quantity: inhibition (%)
Give bare numbers, in %.

Before answering, review these 5 worked examples.
compound | tested-on | result-unit | inhibition
Cc1ccc(Nc2nc(C)cc(C)c2C(N)=O)cc1 | Serine/threonine-protein kinase PLK1 (Homo sapiens) | % | -8.3
CCOC(=O)c1c(C)oc2cc(Br)c(OCC(N)=O)cc12 | Serine/threonine-protein kinase PLK1 (Homo sapiens) | % | -3.79
CC1CN(c2cc(=O)n(Cc3ccc(F)cc3)c(=O)[nH]2)CC(C)O1 (configuration not stated) | Serine/threonine-protein kinase PLK1 (Homo sapiens) | % | 70.7
CCOC(=O)N1CCN(S(=O)(=O)c2ccc(C(=O)Nc3ccc(F)cc3F)cc2)CC1 | Serine/threonine-protein kinase PLK1 (Homo sapiens) | % | -7.78
CC1C/C(=N/NC(=O)c2cccs2)CC(C)(C)C1 (configuration not stated) | Serine/threonine-protein kinase PLK1 (Homo sapiens) | % | -10.1

# batch: return inhibition for each of the 4 compounds below
1. COC(=O)C1=C(C)N=C2SC(C)C(=O)N2C1/C=C/c1ccccc1 (configuration not stated)
2. COCc1nnc(NC(=O)CS(=O)(=O)Cc2ccccc2)s1
3. CCOC(=O)Nc1ccc2c(c1)N(C(=O)CCN1CCN(CCO)CC1)c1ccccc1CC2
4. CC1CN(c2cc(=O)n(-c3cccc(Br)c3)c(=O)[nH]2)CC(C)O1 (configuration not stated)

# output
[-12.6, -4.96, -25.9, -9.28]

Could you report inhibition for every entry in the following list?
1. CCCSc1nc2c(c(=O)n(C)c(=O)n2C)n1Cc1ccc(C)cc1
2. CC1(C)Cc2c(sc3nc(SCC(=O)NCc4ccccc4)n(-c4ccccc4)c(=O)c23)CS1
3. COc1cc(OC)cc(-c2cc3nc(C4CCN(C(=O)OC(C)(C)C)CC4)cc(=O)n3[nH]2)c1
4. CC(C)=CC(=O)Nc1nnc(-c2ccc(F)cc2)s1
5. O=C(Nc1cccc(F)c1)c1ccc(S(=O)(=O)N2CCCC2)cc1
6. COc1ccc(NC(=O)Cn2nnc(C(=O)NCCc3ccc(OC)c(OC)c3)c2N)cc1
7. COCC(=O)Nc1ccc(Br)cc1

# output
1. 6.87
2. -3.27
3. -8.81
4. -17.5
5. 72.1
6. -3.12
7. 2.4

Would you mind listing inhibition for each of the following compounds?
1. O=C(CSc1ncnc2c1cnn2CCc1ccccc1)Nc1ccc(F)cc1
2. Cc1ccc(-n2c(CNc3ccc(F)cc3)nnc2SCC(=O)N2CCOCC2)cc1
3. CCOc1ccccc1C1CC(c2ccccc2)Nc2nc(N)nn21 (configuration not stated)
4. C=CCn1c(SCc2c(C(=O)OC)sc(N)c2C(=O)OC)nnc1-c1ccc(Cl)cc1
5. COc1ccc(C2CC(c3ccc(C)cc3)Nc3nc(N)nn32)cc1 (configuration not stated)
6. O=C(Nc1ccc2c(c1)CCC2)c1cccc(S(=O)(=O)N2CCN(c3ccc(F)cc3)CC2)c1

# output
1: -7.32; 2: -8.34; 3: 64; 4: 0.32; 5: -3.47; 6: -5.86

* * *

Target: Serine/threonine-protein kinase PLK1 (Homo sapiens)
Assay: human PLK1 kinase inhibitors, primary screen, biochemical, TR-FRET (AID 619);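 note: 0% = DMSO max control and 100% = H-89 dihydrochloride min control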
Conditions: recombinant PLK1 kinase, TR-FRET peptide phosphorylation; at 10 µM; stronger effect = higher value
In all, about 97,000 compounds went through this assay and about 520 (0.54%) were called active. The sample holds actives, similar compounds and a random draw of the others, so the mix is not that of the screen.
measured-quantity: inhibition (%)
One number for each entry, in %.

Solved cases (6 shown):
compound | tested-on | result-number
O=C(CNC(=O)Cc1ccccc1)NCC(=O)OCC(=O)c1ccccc1Cl | Serine/threonine-protein kinase PLK1 (Homo sapiens) | -4.92
CN1CCN(c2ccc(NC(=O)COc3ccc(Cl)cc3Cl)cc2)CC1 | Serine/threonine-protein kinase PLK1 (Homo sapiens) | 3
O=C(Nc1ccc2c(c1)OCCO2)C(c1ccc(F)cc1)N1CCCCC1 (stereo unspecified) | Serine/threonine-protein kinase PLK1 (Homo sapiens) | 1.96
FC(F)(F)c1cc(C(F)(F)F)c2ccc(N3CCN(c4ccccc4)CC3)nc2n1 | Serine/threonine-protein kinase PLK1 (Homo sapiens) | -4.18
Cc1ccc(NC(=S)Nc2ncccc2C)c(C)c1 | Serine/threonine-protein kinase PLK1 (Homo sapiens) | -6.19
COc1ccc(C2=NOC3(CC(=O)N(c4ccc(Cl)cc4)C3=O)C2)c(OC)c1 (stereo unspecified) | Serine/threonine-protein kinase PLK1 (Homo sapiens) | -9.65

// for each compound below, give its inhibition
1. Cc1noc(C)c1COC(=O)c1cc2ccccc2cc1O
2. Cc1ccc(S(=O)(=O)c2c(COC(=O)c3cccc(Cl)c3)c(-c3ccccc3)nn2C)cc1
3. CCCC(=O)C1CCN(Cc2ccccc2)CC1
4. O=C1c2ccccc2C(=O)N1CC1c2ccccc2CCN1S(=O)(=O)c1ccccc1 (stereo unspecified)
5. CCOC(=O)c1cc(C#N)c(N2CCCCC2)nc1-c1ccccc1

# output
1: -5.75; 2: 3.59; 3: -5.07; 4: -13.2; 5: -7.56

Origin of measurements: PubChem BioAssay AID619
